Values from ChEMBL document CHEMBL5154842

For each of the molecules below, state its MIC.
- Tested on: Pseudomonas aeruginosa
- test: Antibacterial activity against Pseudomonas aeruginosa assessed as inhibition of bacterial growth incubated for 24 hrs by CLSI protocol based two fold serial dilution method
- Format: functional
Answers are plain numbers, in µg/mL.

| smiles-entry | experimental-system | MIC, µg/mL |
| --- | --- | --- |
| CCCOc1cccc2c1c1ccccc1n2Cc1nnc(S)o1 | Pseudomonas aeruginosa | 256 |
| Fc1cccc(COc2cccc3c2c2ccccc2n3Cc2nnc(S)o2)c1 | Pseudomonas aeruginosa | 256 |
| Sc1nnc(COc2cccc3c2c2ccccc2n3Cc2nnc(S)o2)o1 | Pseudomonas aeruginosa | 128 |
| c1ccc2c(c1)[nH]c1cccc(OCc3nnn[nH]3)c12 | Pseudomonas aeruginosa | 128 |
| Fc1ccccc1COc1cccc2c1c1ccccc1n2Cc1nnc(S)o1 | Pseudomonas aeruginosa | 256 |
| Sc1nnc(COc2cccc3c2c2ccccc2n3CC2CCCC2)o1 | Pseudomonas aeruginosa | 256 |
| CCCCCCOc1cccc2c1c1ccccc1n2Cc1nnc(S)o1 | Pseudomonas aeruginosa | 256 |
| Clc1cnc(COc2cccc3[nH]c4ccccc4c23)s1 | Pseudomonas aeruginosa | 256 |
| Fc1ccc(COc2cccc3c2c2ccccc2n3Cc2nnc(S)o2)c(F)c1 | Pseudomonas aeruginosa | 256 |
| Sc1nnc(Cn2c3ccccc3c3c(OCc4ccc(Cl)cc4)cccc32)o1 | Pseudomonas aeruginosa | 256 |

For every item below, please supply its MIC.
1. CCn1c2ccccc2c2c(OCc3nnn[nH]3)cccc21
2. C=CCSc1nnc2c3ccccc3n(Cc3nnc(S)o3)c2n1
3. C=CCn1c2ccccc2c2c(OCc3nnc(S)o3)cccc21
4. C=CCn1c2ccccc2c2c(OCc3nnn[nH]3)cccc21
5. CCCCCCCCCCCCOc1cccc2c1c1ccccc1n2Cc1nnc(S)o1
6. CC(C)=CCOc1cccc2c1c1ccccc1n2Cc1nnc(S)o1

Result block:
256
256
256
128
256
256

----------
For each of the compounds below, state its MIC.
- Test system: Escherichia coli
- test: Antibacterial activity against Escherichia coli assessed as inhibition of bacterial growth incubated for 24 hrs by CLSI protocol based two fold serial dilution method
- Type: functional
Answers are plain numbers, in µg/mL.

Sample records with MIC:
| smiles-entry | measurement-label | reading |
| --- | --- | --- |
| C=CCOc1cccc2c1c1ccccc1n2Cc1nnc(S)o1 | MIC | 4 |
| CCn1c2ccccc2c2c(OCc3nnc(S)o3)cccc21 | MIC | 8 |
| CCn1cc(C(=O)O)c(=O)c2cc(F)c(N3CCNCC3)cc21 | MIC | 0.25 |

For every item below, please supply its MIC.
1. CCCCCCCCCCCCOc1cccc2c1c1ccccc1n2Cc1nnc(S)o1
2. CCOc1cccc2c1c1ccccc1n2Cc1nnc(S)o1
3. C=CCn1c2ccccc2c2c(OCc3nnc(S)o3)cccc21
4. C=CCn1c2ccccc2c2c(OCc3nnn[nH]3)cccc21
5. CC(C)=CCn1c2ccccc2c2c(OCc3nnn[nH]3)cccc21
6. C=CCSc1nnc2c3ccccc3n(Cc3nnc(S)o3)c2n1
7. c1ccc2c(c1)[nH]c1cccc(OCc3nnn[nH]3)c12
8. CCSc1nnc2c3ccccc3n(Cc3nnc(S)o3)c2n1

Result block:
[256, 0.5, 8, 1, 32, 256, 128, 256]

----------
- Test system: Escherichia coli
- test: Antibacterial activity against Escherichia coli assessed as inhibition of bacterial growth incubated for 24 hrs by CLSI protocol based two fold serial dilution method
- Assay type: functional
For each of the compounds below, state its MIC.
Answers are plain numbers, in µg/mL.

For every item below, please supply its MIC.
1. CC(C)=CCOc1cccc2c1c1ccccc1n2Cc1nnc(S)o1
2. CCCOc1cccc2c1c1ccccc1n2Cc1nnc(S)o1
3. Sc1nnc(Cn2c3ccccc3c3c(OCC4CC4)cccc32)o1
4. CCCCCCOc1cccc2c1c1ccccc1n2Cc1nnc(S)o1
5. Sc1nnc(COc2cccc3c2c2ccccc2n3CC2CCCCC2)o1
6. Clc1cnc(COc2cccc3[nH]c4ccccc4c23)s1

Result block:
1: 8; 2: 4; 3: 2; 4: 8; 5: 4; 6: 256

For every item below, please supply its MIC.
1. Sc1nnc(Cn2c3ccccc3c3c(OCC4CCCCC4)cccc32)o1
2. CCn1c2ccccc2c2c(OCc3nnn[nH]3)cccc21
3. CCn1c2ccccc2c2nnc(SCc3nnc(S)o3)nc21

Result block:
1: 1; 2: 8; 3: 256

Query block: Fill in the blank: the reported MIC of CCCCOc1cccc2c1c1ccccc1n2Cc1nnc(S)o1 is ____.
Result block: 256
